# Test system: PPARg:RXRa 90nM:30nM, anti-RXR (NR concentration 90 nM, RXRa partner concentration 30 nM)
# Assay text: PBM binding z-score (relative to random genomic background probes); higher = stronger binding; sequences stand for … in GC…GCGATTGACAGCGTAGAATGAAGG
Each entry below carries its recorded PBM binding z-score.

Check out these entries, answers already filled in.
TCGAGTAGGTTAGGGGTATTCAGAATGGCGTCGA | 2.99
CCAGACACGTGAAAGGTAACTCAGTCTGGTACGC | -0.253
TCTCGGAGGACACGAAGCTCAGAGCTTTCCAGAG | 1.27

Input line: Given the entry `GCTTACGGGTCAAACGTTATAGCATGAATAGAAT` , what PBM binding z-score was observed with PPARg:RXRa 90nM:30nM, anti-RXR (NR concentration 90 nM, RXRa partner concentration 30 nM)?
Output line: 5.31

* * *

Each entry below carries its recorded PBM binding z-score.
# System: PPARg homodimer (NR concentration 180 nM)
# Assay text: PBM binding z-score (relative to random genomic background probes); higher = stronger binding; sequences stand for … in GC…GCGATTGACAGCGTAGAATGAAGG
Just the number, please, no unit attached.

CCTACTGGGCCAAAAGTCATTGATTCCAATGCTC | 0.216
TCTTGTAGATCAAGCAGGTTAGGAAAGCCTGAGT | -0.235
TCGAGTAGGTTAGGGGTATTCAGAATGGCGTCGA | 0.948
ACTAGTTGGACAGCTGAGGTCACACACAATTCGG | 1.73

In the following, a different sequence is considered.
Input line: Returns the measured PBM binding z-score for the input sequence. Input: `CGAACTAGGTCAGAACAGGTCAGTGAAGGATGAT`
Output line: 1.66

* * *

# System: THRa:RXRa (NR concentration 90 nM, RXRa partner concentration 90 nM)
# Assay text: PBM binding z-score (relative to random genomic background probes); higher = stronger binding; sequences stand for … in GC…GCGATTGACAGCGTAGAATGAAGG
Each entry below carries its recorded PBM binding z-score.

GATACAGGGTCAGCTAGAGTCCAGAGTATGGAAA | 2.88
TAGCCGAGGTCATGCGGGCCAGTATAGTGTCGGC | 4.36
ACAAGCAGGCCAAGGGTCACTCAAGATTAGTCCG | 2.67
GATACAGCGTCAAGGCCAGAGTACGCGTATTGAT | -0.179
GCTAGTTGGTCAGTAAAAGGTTACACACCGGTCG | 1.42
ATCTCTAGGTAAAGTTCAGTGTAAGATCGATAGA | 1.65
CCGACTGGGGCAGATAGGTTACCATACCATCCGG | -0.181
TGAATGAGGTTATAAGATCATGGAACGTTGCAAA | 1.71

Input line: Returns the measured PBM binding z-score for the input sequence. Input: `CCTACTTGGCCAAGGTCATTGATCAGTCAAAGCA`
Output line: 3.82

Input line: Please do the same for `ATATGTAGGTTAAGGATCATTCAGGTTGGTTCGC` as well.
Output line: 1.42

Input line: Please do the same for `TCTATTAGATGATTAGGGCAACCGAAACAGCGGA` as well.
Output line: 0.35

Input line: Please do the same for `TCGAGTAGGTTACCAATGGGGCATTCTGCTTTCT` as well.
Output line: -0.229
